Hey, just so you know, these numbers are from paper PMC5700166.

# target-under-test: GST-Co-NF-kB (Capsaspora owczarzaki, UniProt F1ARL5 200-546)
# Sequence: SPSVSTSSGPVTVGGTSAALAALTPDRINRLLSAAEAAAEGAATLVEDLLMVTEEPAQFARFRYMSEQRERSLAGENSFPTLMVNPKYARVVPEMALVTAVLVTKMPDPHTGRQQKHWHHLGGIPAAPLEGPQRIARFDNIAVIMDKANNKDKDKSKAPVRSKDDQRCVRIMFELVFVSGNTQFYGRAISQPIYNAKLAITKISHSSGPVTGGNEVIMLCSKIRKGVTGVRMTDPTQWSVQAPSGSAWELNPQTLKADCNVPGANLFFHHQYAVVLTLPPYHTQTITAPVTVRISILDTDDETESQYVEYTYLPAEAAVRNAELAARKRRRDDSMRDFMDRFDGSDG
# experiment-summary: protein-binding microarray (PBM); PBM: ~300 nM protein, 6 mM HEPES pH 7.8, 80 mM KCl, 0.5 mM EDTA, 0.5 mM EGTA, 6% glycerol, 35 ng/ul poly-dIdC, 1% milk, 1 h, room temperature; Ap Aiptasia and Nv Nematostella (sea anemones) / Co Capsaspora / Aq Amphimedon (sponge) / Dm Drosophila / Hu human; RHD is the Rel homology domain; high values mean tight binding
# condition-parameters: dsDNA, one strand shown
Entry flag: True if binding signal reaches 4 z-score; False if it does not.

Ask | Hi team, for `CCGATTAACATCAGGGGAGTGTATGATGTTAATCGGGTCTTGATTCGCTTGACGCTGCTG` , is the recorded binding signal at or above 4 z-score?
Reply | False

Ask | Item `CCGATTAACATCAGAAATCCCGCTGATGTTAATCGGGTCTTGATTCGCTTGACGCTGCTG` with binding signal of 4 z-score or above?
Reply | False

Ask | Determine whether this sequence has binding signal no lower than 4 z-score: `CCGATTAACATCACGGTATTCCCTGATGTTAATCGGGTCTTGATTCGCTTGACGCTGCTG`
Reply | False

Ask | Check if binding signal >= 4 z-score (inclusive). Item: `CCGATTAACATCAAAAACCACCCTGATGTTAATCGGGTCTTGATTCGCTTGACGCTGCTG`
Reply | False

Ask | Exam item: decide whether the reported binding signal for `CCGATTAACATCAGAGTTTTCCCTGATGTTAATCGGGTCTTGATTCGCTTGACGCTGCTG` is at least 4 z-score.
Reply | True

Ask | I'd appreciate it if you could say whether `CCGATTAACATCAGGGTTTCCCATGATGTTAATCGGGTCTTGATTCGCTTGACGCTGCTG` has binding signal at least equal to 4 z-score.
Reply | False

Ask | Reported binding signal reaches at least 4 z-score for `CCGATTAACATCAAACTTCCCCATGATGTTAATCGGGTCTTGATTCGCTTGACGCTGCTG` ?
Reply | True

Ask | Item `CCGATTAACATCAATTTCCCGCCTGATGTTAATCGGGTCTTGATTCGCTTGACGCTGCTG` with binding signal of 4 z-score or above?
Reply | False

Ask | Is reported binding signal greater than or equal to 4 z-score here: `CCGATTAACATCACTACCCCCCCTGATGTTAATCGGGTCTTGATTCGCTTGACGCTGCTG`
Reply | True

Ask | Item `CCGATTAACATCACCCGATTCCCTGATGTTAATCGGGTCTTGATTCGCTTGACGCTGCTG` with binding signal of 4 z-score or above?
Reply | False

Ask | Reported binding signal at or above 4 z-score? `CCGATTAACATCAGGGGAAGGTATGATGTTAATCGGGTCTTGATTCGCTTGACGCTGCTG`
Reply | True

Ask | Is the recorded value of binding signal equal to or greater than 4 z-score for this sequence? `CCGATTAACATCAGGGGGAGGGATGATGTTAATCGGGTCTTGATTCGCTTGACGCTGCTG`
Reply | True

Ask | Check this sequence for binding signal at or above 4 z-score: `CCGATTAACATCAACTTTCCCAGTGATGTTAATCGGGTCTTGATTCGCTTGACGCTGCTG`
Reply | False

Ask | Is it the case that `CCGATTAACATCAAAGTTTTCCCTGATGTTAATCGGGTCTTGATTCGCTTGACGCTGCTG` has binding signal reaching or exceeding 4 z-score?
Reply | True

Ask | Please indicate if the recorded binding signal for `CCGATTAACATCAGGCACCCCCCTGATGTTAATCGGGTCTTGATTCGCTTGACGCTGCTG` meets or exceeds 4 z-score.
Reply | False

Ask | Check this sequence for binding signal at or above 4 z-score: `CCGATTAACATCACATAATCCCCTGATGTTAATCGGGTCTTGATTCGCTTGACGCTGCTG`
Reply | False

Ask | Record `CCGATTAACATCAATTATTCCCCTGATGTTAATCGGGTCTTGATTCGCTTGACGCTGCTG` ; criterion: binding signal no lower than 4 z-score. Met?
Reply | True

Ask | Reported binding signal at or above 4 z-score? `CCGATTAACATCAGGCATCCCCATGATGTTAATCGGGTCTTGATTCGCTTGACGCTGCTG`
Reply | False

Ask | In plain terms: is recorded binding signal at least 4 z-score for `CCGATTAACATCAGGGAAGACCCTGATGTTAATCGGGTCTTGATTCGCTTGACGCTGCTG` ?
Reply | False

Ask | Please tell me: is the sequence `CCGATTAACATCAAAAATTCCCCTGATGTTAATCGGGTCTTGATTCGCTTGACGCTGCTG` at or over 4 z-score in terms of binding signal?
Reply | True

Ask | Is reported binding signal greater than or equal to 4 z-score here: `CCGATTAACATCAGGGGTGGGAATGATGTTAATCGGGTCTTGATTCGCTTGACGCTGCTG`
Reply | False

Ask | Entry `CCGATTAACATCAAAGTACCCCCTGATGTTAATCGGGTCTTGATTCGCTTGACGCTGCTG` : is its binding signal no less than 4 z-score?
Reply | True

Ask | Does the sequence `CCGATTAACATCAGGGATTCCCCTGATGTTAATCGGGTCTTGATTCGCTTGACGCTGCTG` have recorded binding signal that is 4 z-score or more?
Reply | True

Ask | In plain terms: is recorded binding signal at least 4 z-score for `CCGATTAACATCAGATTTCCCACTGATGTTAATCGGGTCTTGATTCGCTTGACGCTGCTG` ?
Reply | False

Ask | Say whether `CCGATTAACATCAGGGGATCACCTGATGTTAATCGGGTCTTGATTCGCTTGACGCTGCTG` shows binding signal of 4 z-score or more.
Reply | False

Ask | Please tell me: is the sequence `CCGATTAACATCAGGGGAGAAAATGATGTTAATCGGGTCTTGATTCGCTTGACGCTGCTG` at or over 4 z-score in terms of binding signal?
Reply | True

Ask | Form field: binding signal at least 4 z-score? Entry: `CCGATTAACATCAGCCATATTTGTGATGTTAATCGGGTCTTGATTCGCTTGACGCTGCTG`
Reply | False

Ask | Check if binding signal >= 4 z-score (inclusive). Item: `CCGATTAACATCAGGGTGGGAAATGATGTTAATCGGGTCTTGATTCGCTTGACGCTGCTG`
Reply | False

Ask | Could you verify whether the entry `CCGATTAACATCAGGGGAAACTATGATGTTAATCGGGTCTTGATTCGCTTGACGCTGCTG` shows binding signal of no less than 4 z-score?
Reply | True

Ask | State whether the measured binding signal reaches 4 z-score, counting equality as reaching it, for `CCGATTAACATCACCCGGGAAACTGATGTTAATCGGGTCTTGATTCGCTTGACGCTGCTG`
Reply | True

Ask | Check if binding signal >= 4 z-score (inclusive). Item: `CCGATTAACATCAGGGGAAATCATGATGTTAATCGGGTCTTGATTCGCTTGACGCTGCTG`
Reply | True

Ask | Determine whether measured binding signal meets or exceeds 4 z-score for `CCGATTAACATCAGGCGTCCCCCTGATGTTAATCGGGTCTTGATTCGCTTGACGCTGCTG`
Reply | True

Ask | For this sequence, is measured binding signal 4 z-score or higher? `CCGATTAACATCAGCTAATTCCCTGATGTTAATCGGGTCTTGATTCGCTTGACGCTGCTG`
Reply | False

Ask | // inclusive: binding signal at least 4 z-score? input: `CCGATTAACATCAGGGGGAGTACTGATGTTAATCGGGTCTTGATTCGCTTGACGCTGCTG`
Reply | True

Ask | Could you verify whether the entry `CCGATTAACATCACGGGAAGTACTGATGTTAATCGGGTCTTGATTCGCTTGACGCTGCTG` shows binding signal of no less than 4 z-score?
Reply | False
